# Experimental details: soluble on expression in E. coli; label from the status in PepcDB or PDB records
Measurement name: soluble on expression in E. coli

Qu. Entry under review: MLPNVAVEFDENSIFRSLGKGNLTFREAFEEIIKFIEADTNSSYRISIGTDSHVGNGTLFVTCIHVHRIGKGAIGFLHKSLMSRPIRNLREKIYMETCMSLQLAYLFDEEKIDRIYKALGKNGKSPTKGVTFEFHIDIGKRGETKALINEMVGMVSGLNFIPKIKPDSYCASCFADRYTKAI . Reported soluble on expression in E. coli?
Ans. soluble

Qu. Entry under review: MAHHHHHHMSNCPHPRGDCGGRSVAAEGTLVPSHISCGDFTFQGGQTPRKELAGVHTSALMQPGLSSAVPSNSILSFSHDVVAAGNGMPPSVSPASSEKKKVLGTSGGGGSAEGTLNSANSSDQGPTGTPVKRNTKPLVPQQHVTKCQLTPNDAAASGLLITTPETPCNEKNPVYAAVGAARQSRERMISAENFTVIQPGGKLRTHLPPQRESGSDKKGKK . Reported soluble on expression in E. coli?
Ans. soluble

Qu. Entry under review: MENSGHKVYYCMGSPLFALNAGRMENNLVAFSGGLSINKQLQKEGKPGINVSPSFINENNPDTIFISGFLSRPLDEFYTLCRQYGIETDAVKQQRVYEVPPSWDFGNPRWILGLMYIADKLYPGNSGIDLEKEADEFYRQFYGMPYLEHHHHHH . Reported soluble on expression in E. coli?
Ans. soluble
